EXPERIMENT: modulators of CIT2-GFP expression in yeast, confirmation, S. cerevisiae, GFP fusion, cherry picks, mother/daughter gates (AID 2274)
CONDITION_DESCRIPTION: S. cerevisiae CIT2-GFP strain, flow cytometry, 3 h; measured here: mother cell gate; at 10 µM; stronger effect = higher value
What GFP response, % of DMSO was measured for each of the following?
Give bare numbers, in %.

compound=CC(=O)c1ccc(NC(=O)CN2CCC(NC(=O)C3CCCCC3)CC2)cc1 numeric_value=95.6

For each of the compounds below, state GFP response, % of DMSO.
1. CCOc1ccccc1C1N=C(c2ccc(OC)cc2)CC(c2ccccc2O)N1 (stereo unspecified)
2. O=C(OC(c1ccc(NS(=O)(=O)c2ccccc2)cc1)(C(F)(F)F)C(F)(F)F)c1ccccc1
3. Cc1ccc(C2=NN(S(C)(=O)=O)C(c3ccc4nccnc4c3)C2)cc1 (stereo unspecified)
4. O=[N+]([O-])/C=C/c1cn(Cc2ccc(Cl)cc2)c2ccccc12
5. COc1ccccc1-c1nnc(NC(=O)c2ccc(S(=O)(=O)N3CCCC3)cc2)o1
6. COc1cc(/C=C2\N=C(c3ccccc3)OC2=O)ccc1OC(C)=O

A)
[109, 91.8, 99.7, 102, 107, 113]

For each of the compounds below, state GFP response, % of DMSO.
1. O=S(=O)(c1ccc(Cl)cc1)c1ccccn1
2. CCNC(=O)c1c(O)c2cccc3c2n(c1=O)CC3
3. Cc1nn(C(=O)c2ccco2)c(C)c1Sc1ccccc1

A)
105
98.1
98.2

For each of the compounds below, state GFP response, % of DMSO.
1. O=C(Nc1nc(-c2ccccc2)cs1)c1ccc(Br)o1
2. Cc1ccc(NC(=S)N2CCSC2c2cccs2)cc1 (stereo unspecified)
3. C(=N\Nc1ccccn1)/c1c[nH]c2ccccc12

A)
[107, 103, 98.1]

For each of the compounds below, state GFP response, % of DMSO.
1. CN1CCc2c(sc3c2C(=O)NC(c2ccc4c(c2)OCO4)N3)C1 (stereo unspecified)
2. Cc1cccc(NC(=S)NCC23C=CC(O2)C2C(=O)N(c4ccc(Cl)cc4)C(=O)C23)c1 (stereo unspecified)
3. Cc1cc(NC(c2ccc(Cl)cc2)c2ccc3cccnc3c2O)no1 (stereo unspecified)

A)
99.1
103
98.5

Reference source: PubChem BioAssay
